Test system: MIA PaCa-2
Method summary: Cytotoxicity against gemcitabine-resistant human MIAPaCa2 cells assessed as decrease in cell proliferation after 72 hrs by MTT assay
Format: functional, cell-based
Experimental conditions: MIA PaCa-2, 72 h
// pIC50 lookup, one value per entry
Give only the number. pIC50 is defined as minus log10 of concentration in molar units.

State its pIC50 on MIA PaCa-2: "Nc1ccn([C@@H]2O[C@H](CO)[C@@H](O)C2(F)F)c(=O)n1"
5.48

Identify the measured pIC50 of "O=C(NCCC[P+](c1ccccc1)(c1ccccc1)c1ccccc1)c1cccc(NC2=CC(=O)c3ncncc3C2=O)c1" for MIA PaCa-2.
4.79

Reported pIC50 for MIA PaCa-2, given "O=C(NCCC[P+](c1ccccc1)(c1ccccc1)c1ccccc1)c1ccc(NC2=CC(=O)c3ncncc3C2=O)cc1" ?
4.75

Form entry - test system: MIA PaCa-2; read-out: pIC50; molecule: "CC(=O)c1cccc(NC2=CC(=O)c3ncncc3C2=O)c1"
5.44

Param readout = pIC50; param system = MIA PaCa-2; param query = "COc1cc(NC2=CC(=O)c3ncncc3C2=O)cc(OC)c1OC" ; response: value
5.70

Find the measured pIC50: item "O=C1C(Nc2ccc(-c3ccccc3)cc2)=CC(=O)c2ncncc21" , target or system MIA PaCa-2.
6.00
